The measurements presented in this section are drawn from paper PMC9352680.

Each record here notes measured Kd.
- Target Entity: T1, PUF4 RNA-binding domain (Saccharomyces cerevisiae, UniProt P25339 537-888)
- T1 sequence: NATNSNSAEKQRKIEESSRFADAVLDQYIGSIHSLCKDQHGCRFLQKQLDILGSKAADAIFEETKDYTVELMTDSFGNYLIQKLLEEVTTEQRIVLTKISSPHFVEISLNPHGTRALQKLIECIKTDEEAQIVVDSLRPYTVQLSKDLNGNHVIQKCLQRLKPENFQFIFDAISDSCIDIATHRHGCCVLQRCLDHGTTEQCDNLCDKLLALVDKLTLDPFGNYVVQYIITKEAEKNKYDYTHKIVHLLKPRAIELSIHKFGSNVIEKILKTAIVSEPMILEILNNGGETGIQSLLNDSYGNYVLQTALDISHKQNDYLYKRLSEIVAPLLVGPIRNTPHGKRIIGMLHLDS
- Experimental Details: Mg; RNA-MaP; 20 mM Na-HEPES pH 7.4, 30 mM KOAc, 0.75 mM MgCl2, 0.1% Tween-20, 5% glycerol, 0.1 mg/mL BSA, 2 mM DTT; 25 C; 0.0125-409.6 nM protein
- Condition Description: tags: N-His6-TEV cleaved; C-SNAP kept, Cy3B-labelled; label: tethered on chip by stalled RNA polymerase
Observed Property: Kd (nM)

* Ia_S2_P5E.1_K5.1_C5.1_H5.1_A5.1_[T5A]_F5.1_T5.1 (ssRNA) RNA: UUUGAUUAAUAUGAUAUCGUUCUUUCUUGUAAUAUUAUUCUUUCUCGAUAUCAUAUUAAUCUUU | 4.27
* UCUCUUUAUAUGUUAUCUCUU (ssRNA) [Ib_S1_P4E.1_K4.1_C4.1_H4.1_[G2A]_A4.1_[A6G]_F4.1_T4.1] | 635
* Ic_S4_P3E.1_K3.1_C3.1_H3.1_A3.1_[A6G]_F3.1_[A8T]_T3.1 (ssRNA) RNA: UUUGACAACUGAUCGUUCUUUCUUGUAUGUUUUCUUUCUCGAUCAGUUGUCUUU | 25.7
* UCUCUUUGUACAACUCUCUU (ssRNA) [Ic_S1_P3E.1_K3.1_C3.1_H3.1_A3.1_[T5C]_F3.1_[T7A]_[A8C]_T3.1] | 50.4
* Id_ii_S4_P3E.4_K3.3_C3.2_[C-2T]_[T-1A]_H3.3_A3.1_F3.1_T3.2_[A10C] (ssRNA) RNA: UUUGACAACUGAUCGUUCUUUCUUAACACUAUAUCUUCUUUCUCGAUCAGUUGUCUUU | 1540
* Ic_S2_P4E.1_K4.1_C4.1_H4.1_A4.1_[T5C]_[A6G]_[T7C]_F4.1_[A9G]_T4.1 (ssRNA) RNA: UUUGAUUAAUAUGAUAUCGUUCUUUCUUGUACGCUGUUCUUUCUCGAUAUCAUAUUAAUCUUU | 31.1
